assay: Quantitative High-Throughput drug screen in 47 multiple myeloma cell lines against the NCATS MIPE library collection: KMM1_JCRB cell viability assay (AID 1918960); conditions: KMM1 myeloma viability, CellTiter-Glo ATP luminescence, 48 h; series mostly up to 45.8 µM; note: nearly all actives have a fitted effect of over 30% in size
Records with an inconclusive call do not appear. The source made the active and inactive calls. Calls come from the whole dose curve; as a rule, active = well fitted cell-killing curve with a large enough effect; inconclusive = small, poorly fitted or top-dose-only effect, or effect the other way; inactive = no such curve, though single readings can be large or run the other way.
Classes used: active, inactive

chemical.string | category.label
Cc1c(C(=O)c2cccc3ccccc23)c2cccc3c2n1[C@H](CN1CCOCC1)CO3 | active
CC[C@@H]1[C@@H](C)O[C@@](O)([C@@H](C)[C@H](O)[C@H](C)[C@H]2OC(=O)C=CC=C[C@@H](C)[C@@H]([C@@H](C)[C@@H](O)[C@H](C)[C@@]3(O)C[C@H](O[C@H]4C[C@H](O)[C@H](O)[C@H](C)O4)[C@H](CC)[C@@H](C)O3)OC(=O)C=CC=C[C@@H]2C)C[C@H]1O[C@H]1C[C@H](O)[C@H](O)[C@H](C)O1 | active
COc1cccc2c1[C@]13CCN(CC4CC4)[C@H](C2)[C@]1(OC)CCC(=O)C3 | inactive
